Recorded values, source patent US20250099420A1.

- Test system: parental HEK cells
- Experimental Protocol: HEK parental Agonist Counterscreen Assay (non-transfected cells)
- Format: cell-based
- Condition Summary: HEK Agonist Activity section
Please mark satisfied if the recorded Lipophilic Efficiency (logD) is equal to or greater than 2, and not satisfied if it falls below.

Take a look at these entries with their results.
Cc1ccccc1SCC(=O)NNC(=O)C1CCCCC1; not satisfied
COc1ccc(CCCC(=O)c2cccc(-c3ccc(OC)cc3)c2)cc1; not satisfied
O=C(c1ccccc1)C1CCCCC1S(=O)(=O)O (stereo not drawn); satisfied
O=C(CN1C(=O)NC2(CCCc3ccccc32)C1=O)N1CCCCCC1 (stereo not drawn); satisfied
COCC(=O)Oc1c(Sc2c(F)c(F)c(F)c(F)c2F)c(C)nn1C(C)(C)C; not satisfied
O=C(O)CC1CCCC1c1ccccc1 (stereo not drawn); satisfied
O=C(CN1CCN(Cc2ccccc2F)C1=O)NCCc1ccc(Cl)cc1; satisfied
COc1ccc(C)cc1NC(=O)NNC(=O)C(C)Oc1ccc(F)cc1Cl (stereo not drawn); not satisfied
CCN(CCCNC(=O)CN1CCC(Cc2ccccc2C)C1=O)c1cccc(C)c1 (stereo not drawn); not satisfied
O=C(CN1CCN(Cc2ccccc2Cl)C1=O)NC1CCCCCCC1; not satisfied

Next:
Determine whether this compound has Lipophilic Efficiency (logD) no lower than 2: COc1ccc(CCn2nc(-c3cccnc3)[nH]c2=O)cc1 satisfied
